B1: TRIM35 (parent)
chain: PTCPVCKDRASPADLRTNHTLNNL

Variants of: B1
Assay: protein stability index of a GFP-peptide fusion (GPS, HEK-293T) (PSI 1-6); higher = more stable;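 further: lentivirally expressed fusions sorted by FACS into six bins by GFP to DsRed ratio, PSI derived from sequencing read proportions per bin multiplied by bin number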
Conditions: c terminus: a fixed tail appended

sequence_chain: PTCPVCKDLASPADLRTNHTLNNL [R9L]
protein stability index: 3.07
//
sequence_chain: PTCPVCKDRASPADLRTNHTLNVL [N23V]
protein stability index: 3.06
//
sequence_chain: PTCPVCKDMASPADLRTNHTLNNL [R9M]
protein stability index: 2.97
